Molecular target: T1, human tissue factor pathway inhibitor (TFPI) (human, UniProt P10646 29-304, limits assumed)
T1 construct: bought; also called hTFPI; human TFPI
T1 sequence (looked up): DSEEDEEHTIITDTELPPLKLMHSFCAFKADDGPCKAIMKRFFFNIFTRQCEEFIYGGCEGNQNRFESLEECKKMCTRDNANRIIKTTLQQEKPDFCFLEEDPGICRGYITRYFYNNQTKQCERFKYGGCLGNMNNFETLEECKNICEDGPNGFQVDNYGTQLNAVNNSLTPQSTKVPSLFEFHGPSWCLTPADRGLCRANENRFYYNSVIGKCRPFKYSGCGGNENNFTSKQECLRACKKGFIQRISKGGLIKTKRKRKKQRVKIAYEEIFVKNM
Test: competitive ELISA
recorded endpoint: variant/HC_K99L (ratio)

[[record]]
binder = "2A8 HC S35D+S56G+K99L/LC Y48F+D91L+V96W (Fab, V domains shown) VH: QVQLVESGGGLVQPGGSLRLSCAASGFTFRSYGMDWVRQAPGKGLEWVSSIRGSSGSTYYADSVKGRFTISRDNSKNTLYLQMNSLRAEDTAVYYCARLYRYWFDYWGQGTLVTVSS VL: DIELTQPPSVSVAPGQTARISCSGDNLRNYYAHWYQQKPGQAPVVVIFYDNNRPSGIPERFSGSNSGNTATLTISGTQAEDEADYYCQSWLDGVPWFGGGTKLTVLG"
recorded_endpoint = "variant/HC_K99L"
recorded_measurement = 17.8

[[record]]
binder = "2A8 HC S35D+S55R+S56G+K99L/LC Y48F+N51V+D91W (Fab, V domains shown) VH: QVQLVESGGGLVQPGGSLRLSCAASGFTFRSYGMDWVRQAPGKGLEWVSSIRGSRGSTYYADSVKGRFTISRDNSKNTLYLQMNSLRAEDTAVYYCARLYRYWFDYWGQGTLVTVSS VL: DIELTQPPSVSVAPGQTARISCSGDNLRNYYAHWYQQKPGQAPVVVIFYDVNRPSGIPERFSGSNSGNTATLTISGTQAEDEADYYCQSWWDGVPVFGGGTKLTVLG"
recorded_endpoint = "variant/HC_K99L"
recorded_measurement = 21.4

[[record]]
binder = "2A8 HC S31V+K99V/LC N51V+D91W (Fab, V domains shown) VH: QVQLVESGGGLVQPGGSLRLSCAASGFTFRVYGMSWVRQAPGKGLEWVSSIRGSSSSTYYADSVKGRFTISRDNSKNTLYLQMNSLRAEDTAVYYCARVYRYWFDYWGQGTLVTVSS VL: DIELTQPPSVSVAPGQTARISCSGDNLRNYYAHWYQQKPGQAPVVVIYYDVNRPSGIPERFSGSNSGNTATLTISGTQAEDEADYYCQSWWDGVPVFGGGTKLTVLG"
recorded_endpoint = "variant/HC_K99L"
recorded_measurement = 6.7

